system: T-47D breast; assay: NCI-60 one-dose screen, 48 h (100 = growth as untreated, 0 = no growth, -100 = all killed); conditions: 10 µM
About 83,000 compounds went through this panel and 20% of them were active in at least one assay; those are over-represented in the sample as a whole.
Note to self: use condition met only for growth readings below 90%; a reading exactly at 90% still gets condition not met.

- compound: "CC(C)C1CCCCC1O (stereo unspecified)"
  label_value: "condition not met"
- compound: "CCOC(=O)C/C(C)=N\\O"
  label_value: "condition not met"
- compound: "CC1(C(=O)O)NC(C(=O)O)Cc2c1[nH]c1ccccc21 (stereo unspecified)"
  label_value: "condition not met"
- compound: "CSC(=N\\N=C\\c1ccc(N(C)C)cc1)/N=C/N(C)C"
  label_value: "condition not met"
- compound: "O=c1[nH]nc(SC2CCCCC2)c(=O)[nH]1"
  label_value: "condition not met"
- compound: "Cc1ccccc1N=C(c1ccccc1)C1C(=O)c2ccccc2C1=O"
  label_value: "condition met"
- compound: "COC(=O)Nc1nc2ccc(C(=O)c3ccc(F)cc3)cc2[nH]1"
  label_value: "condition not met"
- compound: "Sc1ccc(Nc2c3ccccc3nc3ccccc23)cc1"
  label_value: "condition met"
- compound: "C#CC(C)(O)c1ccc(Cl)cc1 (stereo unspecified)"
  label_value: "condition met"
- compound: "N#C/C(=C\\c1cc(O)c(O)c(O)c1)C(N)=O"
  label_value: "condition not met"
- compound: "CCC(C)(O)c1ccc(C)cc1 (stereo unspecified)"
  label_value: "condition not met"
- compound: "CCC(C)(C)C1CCC(O)CC1 (stereo unspecified)"
  label_value: "condition not met"
- compound: "COc1ccc(/C=C/c2cccc[n+]2C)cc1"
  label_value: "condition not met"
- compound: "C[C@@H](c1ccccc1)[C@@H](C(=O)O)c1ccccc1"
  label_value: "condition not met"
- compound: "NC(C(=O)O)c1ccc([N+](=O)[O-])cc1 (stereo unspecified)"
  label_value: "condition not met"
- compound: "COc1ccc2c(NCCCCCCCCNc3c4ccccc4nc4cc(OC)ccc34)c3ccccc3nc2c1"
  label_value: "condition met"
- compound: "CC(=Nc1ccccc1)C1=C(O)C(Cc2cccc(F)c2)NC1=O (stereo unspecified)"
  label_value: "condition met"
- compound: "O=C(O)c1ccccc1NCc1ccco1"
  label_value: "condition not met"
- compound: "COc1cc2c(cc1OC)[C@H](C(=O)O)[C@@H](c1ccc(OC(C)C)c(OC)c1)N(C)C2=O"
  label_value: "condition not met"
- compound: "S=c1[nH]ccn1-c1ccccc1Cl"
  label_value: "condition not met"
- compound: "CC(=O)c1sc2c(c1OC(=O)c1ccc(Cl)cc1Cl)c(=O)n(-c1ccccc1)c(=S)n2-c1ccccc1"
  label_value: "condition met"
- compound: "O=[N+]([O-])c1ccc(/C=C/C=C/c2ccccc2)c(Cl)c1"
  label_value: "condition met"
- compound: "Nc1nc(OCc2ccccc2)c2[nH]cnc2n1"
  label_value: "condition not met"

---

test system: BT-549 breast; assay: NCI-60 one-dose screen, 48 h (100 = growth as untreated, 0 = no growth, -100 = all killed); conditions: 10 µM
Compounds without any hit were thinned out: in the full panel of roughly 83,000, 20% have a hit.

- compound: "CCOc1ccc2[nH]c(=S)sc2c1"
  growth, %: 107
- compound: "CC1(C)S(=O)(=O)OCCOS1(=O)=O"
  growth, %: 100
- compound: "NCCC(=O)c1ccc(Cl)cc1"
  growth, %: 109
- compound: "CC(C)=NNC(N)=S"
  growth, %: 88.3
- compound: "O=C1Cc2ccccc2C(=O)O1"
  growth, %: 101
- compound: "COC(=O)Nc1nc2ccc(C(=O)c3ccc(F)cc3)cc2[nH]1"
  growth, %: 32
- compound: "COCCOC(=O)c1ccc(C(C)C)cc1"
  growth, %: 98.5
- compound: "Cc1ccncc1C(N)=O"
  growth, %: 111
- compound: "Cc1ncc(C#N)c(N)n1"
  growth, %: 94.4
- compound: "O=C(O)/C=C/C(=O)NCc1ccccc1"
  growth, %: 104
- compound: "COc1cc([C@@H]2c3cc4c(cc3[C@H](O)[C@H]3COC(=O)[C@H]23)OCO4)cc(OC)c1OC"
  growth, %: 7.33
- compound: "C=CCNC(=O)c1ccc(OC)cc1"
  growth, %: 106
- compound: "CC(=O)OC1CC2C(C)(C)OC3CC(=O)OCC32C2CCC3(C)C(=CCC3c3ccoc3)C12C (centres undefined)"
  growth, %: 126
- compound: "CC1CCC(C(=O)O)N1 (centres undefined)"
  growth, %: 102

---

tested on: SN12C renal; experiment: NCI-60 one-dose screen, 48 h (100 = growth as untreated, 0 = no growth, -100 = all killed); details: 10 µM
This is part of a sample that, as a whole, favours compounds with a hit. Of some 83,000 tested, about 20% had one in any assay.

- compound: "O=C1OC(c2ccc(F)cc2)CC1CN1CCOCC1 (stereo not given)"
  growth (%): 102
- compound: "O/N=C/c1ccc(O)cc1O"
  growth (%): 98
- compound: "OCCN1CCOCC1"
  growth (%): 97.5
- compound: "CCCOC(=O)C(O)c1ccccc1 (stereo not given)"
  growth (%): 102
- compound: "CCCCC(CC)COC(C)=O (stereo not given)"
  growth (%): 101
- compound: "OCCN(CCO)C(=S)S"
  growth (%): 102
- compound: "OC1OC(COC(c2ccccc2)(c2ccccc2)c2ccccc2)C(O)C(O)C1O (stereo not given)"
  growth (%): 74
- compound: "CC(=O)OCC1=CC2OC(=O)C3=COC(OC4OC(CO)C(O)C(O)C4O)C1C32 (stereo not given)"
  growth (%): 101
- compound: "C=C[Si](OC(C)=O)(OC(C)=O)OC(C)=O"
  growth (%): 110
- compound: "N#CCCN(CCCN1CCOCC1)CN1C(=O)c2ccccc2C1=O"
  growth (%): 108
- compound: "Cc1ccc(Cl)cc1N1C(=O)CC(Sc2ccccc2N)C1=O (stereo not given)"
  growth (%): 96.8
- compound: "OCC1OC(OC2C(O)C(CO)OC2(CO)OC2OC(CO)C(O)C(O)C2O)C(O)C(O)C1O (stereo not given)"
  growth (%): 103
- compound: "COc1cc2cc(OC(C)=O)c3cc4c(cc3c2c(OC)c1OC)OCO4"
  growth (%): 101
- compound: "CC(C)=CC(=O)OC(=O)C=C(C)C"
  growth (%): 100
- compound: "CNS(=O)(=O)c1ccc(Cl)c(Cl)c1"
  growth (%): 92.7

---

test system: SW-620 colon; assay: NCI-60 one-dose screen, 48 h; details: 10 µM
This is part of a sample that, as a whole, favours compounds with a hit. Of some 83,000 tested, about 20% had one in any assay. Activity calls are given as the source filed them. How the source made its calls: active means growth percent below 10; inactive means the rest.
Labels: active, inactive

- compound: "O=C1OC(c2ccc(F)cc2)CC1CN1CCOCC1 (stereo not drawn)"
  label_value: "inactive"
- compound: "Cc1ccc(Cl)cc1NC(=O)N(C)CCO"
  label_value: "inactive"
- compound: "CN(C)CCC(=O)c1ccc(O)cc1"
  label_value: "inactive"
- compound: "COC(=O)Nc1cccc(Cl)c1OC"
  label_value: "inactive"
- compound: "CC(=O)OCCO"
  label_value: "inactive"
- compound: "COc1ccc2c(c1)CCc1c-2n[nH]c1-c1[nH]nc2c1CCc1cc(OC)ccc1-2"
  label_value: "inactive"
- compound: "c1ccc(/C(=N\\N=C(/c2ccccc2)c2cccs2)c2cccs2)cc1"
  label_value: "inactive"
- compound: "COC1=CC(=O)c2nc(Cl)ccc2C1=O"
  label_value: "active"
- compound: "O=[N+]([O-])c1ccc(-c2ncc(-c3ccc(Br)cc3)o2)cc1"
  label_value: "inactive"
- compound: "CCCC[P+](c1ccccc1)(c1ccccc1)c1ccccc1"
  label_value: "inactive"
- compound: "Cc1ccc(C)n1-c1ccsc1C(=O)NNC(=O)CCl"
  label_value: "inactive"
- compound: "CCCCCCCCCCC1CO1 (stereo not drawn)"
  label_value: "inactive"
- compound: "Cc1ccncc1C(N)=O"
  label_value: "inactive"

---

tested on: NCI-H226 lung; test: NCI-60 one-dose screen, 48 h (100 = growth as untreated, 0 = no growth, -100 = all killed); conditions: 10 µM
Compounds without any hit were thinned out: in the full panel of roughly 83,000, 20% have a hit.
outcome_measure: growth (%)

- molecule: "COC(=O)C(C)Oc1ccc(OC#N)cc1 (stereo not drawn)"
  observed_result: 97.3
- molecule: "O=C(O)c1ccccc1NCc1ccco1"
  observed_result: 92.6
- molecule: "CS(=O)CC1=NC(=N)N=C1CS(C)=O (stereo not drawn)"
  observed_result: 102
- molecule: "CCOC(=O)C(O)C(O)C(=O)OCC (stereo not drawn)"
  observed_result: 106
- molecule: "Cc1ccc(C(=O)c2ccccc2)c(C)c1"
  observed_result: 104
- molecule: "O=C(Cc1nc2ccc([N+](=O)[O-])cc2nc1CC(=O)c1cccnc1)c1cccnc1"
  observed_result: 52.2
- molecule: "O=C(/C=C/C(=O)c1ccccc1)c1ccccc1"
  observed_result: 107
- molecule: "CC(=O)OCC1CCCO1 (stereo not drawn)"
  observed_result: 100
- molecule: "S=c1sc2ccccc2n1CN1CCCCC1"
  observed_result: 92.9
- molecule: "CCN(CC)CCCC(C)Nc1ccnc(/C=C/c2ccc(Cl)cc2)c1 (stereo not drawn)"
  observed_result: 62.6
- molecule: "CCCCC(O)c1ccccc1 (stereo not drawn)"
  observed_result: 97.2
- molecule: "COc1cc(C(=O)NC(=S)Nc2ccc3ccccc3c2)cc(OC)c1OC"
  observed_result: 88.9
- molecule: "CCCCCCCO"
  observed_result: 94.7
- molecule: "CCOC(=O)C/C(C)=N\\O"
  observed_result: 98.4
- molecule: "CN(C)/N=C/c1ccccc1O"
  observed_result: 98.6
- molecule: "CCOC(=O)Nc1cc2c(c(N)n1)N=C(c1ccccc1)CO2"
  observed_result: 39.6
- molecule: "CCCOC(=O)C(O)c1ccccc1 (stereo not drawn)"
  observed_result: 105
- molecule: "COc1ccc2c(c1)CCc1c-2n[nH]c1-c1[nH]nc2c1CCc1cc(OC)ccc1-2"
  observed_result: 82.7
- molecule: "CC1(C(=O)O)NC(C(=O)O)Cc2c1[nH]c1ccccc21 (stereo not drawn)"
  observed_result: 93.8
- molecule: "c1ccc2c(N3CCCCC3)ncnc2c1"
  observed_result: 87.2
- molecule: "C/C(=N\\NC(=O)c1ccccc1N)c1ccccc1O"
  observed_result: 52.8
- molecule: "c1ccc(CN2COc3c(ccc4c3OCN(Cc3ccccc3)C4)C2)cc1"
  observed_result: -9.91
- molecule: "O=[N+]([O-])c1ccc(-c2noc(-c3cccs3)n2)cc1"
  observed_result: 86.3
- molecule: "N/N=C(/Cc1ccccc1)NNC(N)=S"
  observed_result: 108
- molecule: "CCC(C)(O)c1ccc(C)cc1 (stereo not drawn)"
  observed_result: 103
- molecule: "N#CCc1ccc([N+](=O)[O-])cc1"
  observed_result: 98.2
- molecule: "COc1ccc(OC)c(/C=C2\\CCc3ccccc3C2=O)c1"
  observed_result: 76.5
- molecule: "COc1cc(CCN=Cc2ccccc2O)c([N+](=O)[O-])cc1OC"
  observed_result: 104
